System: ECHCG (Barnyardgrass)
procedureSummary: Postemergence herbicidal evaluation
Format: in vivo, Echinochloa crus-galli
reportedConditions: postemergence, rate 0.0156 kg/ha
I'd appreciate it if you could supply herbicidal rating ECHCG values for the items below.
One number for each entry.

Example entries begin here.
- CN1C(=O)C(CC(=O)NO)SC1=Nc1cc(-n2c(=O)cc(C(F)(F)F)n(C)c2=O)c(F)cc1Cl (stereo not shown): 0.0
- C=CCN1C(=O)C(CC(=O)NO)SC1=Nc1cc(-n2c(=O)cc(C(F)(F)F)n(C)c2=O)c(F)cc1Cl (stereo not shown): 0.0
- Cn1c(C(F)(F)F)cc(=O)n(-c2cc(N=C3SCC(=O)N3Cc3cccc(C(F)(F)F)c3)c(Cl)cc2F)c1=O: 1.0
- Cn1c(C(F)(F)F)cc(=O)n(-c2cc(N=C3SCC(=O)N3Cc3ccc(S(N)(=O)=O)cc3)c(Cl)cc2F)c1=O: 1.0
- CCOC(=O)CN1C(=O)CSC1=Nc1cc(N2C(=O)CC(C(F)(F)F)CC2=O)c(F)cc1Cl: 2.0

Value sought for every listed compound: herbicidal rating ECHCG.
1. Cn1c(C(F)(F)F)cc(=O)n(-c2cc(N=C3SCC(=O)N3C3CC3)c(Cl)cc2F)c1=O
2. Cn1c(C(F)(F)F)cc(=O)n(-c2cc(N=C3SCC(=O)N3CC(F)(F)F)c(Cl)cc2F)c1=O

Response:
1.0
0.0

Numbers sourced from patent US20020137929A1.
